procedure-details: Inhibition of quorum sensing system in Pseudomonas aeruginosa PAO1 assessed as inhibition of pyocyanin production at 250 uM incubated for 17 hrs by spectrophotometric analysis
measurement-name: inhibition (%)
I only need the number, in %, no unit after it.

>  <smiles-string>
O=C1C(Br)=C(Br)CN1c1ccccc1

>  <inhibition [%]>
90

$$$$

[ask] Return reported inhibition. Input compound: O=C1C(Cl)=C(Cl)CN1c1cccc(O)c1
[reply] 90

[ask] Item O=C1C(Cl)=C(Cl)CN1c1ccccc1 : provide inhibition
[reply] 90

[ask] Using known records, supply inhibition for Nc1cccc(N2CC(Cl)=C(Cl)C2=O)c1
[reply] 90

* * *

procedure-details: Antagonist activity against quorum sensing system in Pseudomonas aeruginosa PAO1 transfected with lasB-lacZ reporter gene assessed as inhibition of beta-galactosidase activity incubated for 24 hrs by elastin-Congo red assay
measurement-name: IC50 (µM)
Answer in µM, number only, no unit symbol.

>  <compound>
CCCCCCCCCC(=O)NC1CCCC1 [N-CYCLOPENTYLDECANAMIDE]

>  <measurement-name>
IC50

>  <result-number>
80

$$$$

[ask] Input CCCCCCCC(=O)NC1CCCC1 , output reported IC50.
[reply] 250

* * *

Listed next: entries and their corresponding inhibition.
System: Escherichia coli
procedure-details: Antagonist activity against quorum sensing system in Pseudomonas aeruginosa PAO1 assessed as inhibition of 3OC6HSL- induced GFP expression at 50 uM by fluorescence analysis
experimental-setup: filed as antagonist

>  <molecule>
CCOC(=O)/C=C1\CC(NCc2ccc(C)cc2)C(=O)N1Cc1ccc(C)cc1 (centres undefined)

>  <assay-system>
Escherichia coli

>  <inhibition>
47.9%

$$$$

[ask] Look up and report measured inhibition for this entry: CCOC(=O)/C=C1\CC(NCc2ccccc2)C(=O)N1Cc1ccccc1 (centres undefined)
[reply] 57.9%

[ask] For CCOC(=O)/C=C1\CC(NCc2cccs2)C(=O)N1Cc1cccs1 (centres undefined) , write its inhibition.
[reply] 53.5%

[ask] Tell us which inhibition value is on record for CCOC(=O)/C=C1\CC(NCc2ccco2)C(=O)N1Cc1ccco1 (centres undefined)
[reply] 56.9%

* * *

assay-system: HTH-type quorum-sensing regulator RhlR (Pseudomonas aeruginosa (strain ATCC 15692 / PAO1 / 1C / PRS 101 / LMG12228), UniProt P54292)
Sequence (P54292 whole entry): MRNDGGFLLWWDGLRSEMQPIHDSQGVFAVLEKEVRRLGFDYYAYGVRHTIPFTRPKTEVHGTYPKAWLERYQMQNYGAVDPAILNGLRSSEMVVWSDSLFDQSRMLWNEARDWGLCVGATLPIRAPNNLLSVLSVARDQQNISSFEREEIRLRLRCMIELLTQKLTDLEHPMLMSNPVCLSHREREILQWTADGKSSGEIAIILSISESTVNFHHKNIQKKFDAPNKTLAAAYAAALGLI
procedure-details: Agonist activity against RhlR in Pseudomonas aeruginosa PAO-JP2 expressing prhlI-LVAgfp using CPRG as substrate by spectrophotometric assay
Listing of recorded EC50 by entry.
Enter your answer as a number in µM; do not include the unit.

Example entries begin here.
>  <smiles-string>
CC(C)CCCC(=O)N[C@H]1CCOC1=O

>  <EC50, µM>
1.02

$$$$
>  <smiles-string>
CCCCC(=O)N[C@H]1CCSC1=O

>  <EC50, µM>
3.82

$$$$

[ask] Check the records and state EC50 for O=C(CC1CCC1)N[C@H]1CCOC1=O
[reply] 1.41
